The reported measurements were obtained from the supplement of paper PMC10011410.

System: U-2 OS
Assay: relative cell count vs DMSO (cell painting) (fraction of DMSO control); higher = more cells remaining (less cytotoxic)
Settings: 5 µM; 24 h
Short version: relative cell count at least 0.9 is label 1, less is label 0.

Prompt line: Has CC[C@@H]1/C=C/C=C/C[C@H](C)[C@@H](O)[C@](C)(O)C(=O)[C@H](C)[C@@H](O)[C@H](C)C(=O)[C@H](C)[C@@H](O)[C@H](C)/C=C/C(=O)O[C@H]2[C@@H](C)[C@@H](CC1)O[C@@]1(CC[C@@H](C)[C@@H](C[C@H](C)O)O1)[C@@H]2C a recorded relative cell count greater than or equal to 0.9?
Response line: label 0

Prompt line: Has Nc1nc(-c2ccccc2)[n+](-c2ccccc2)s1 a recorded relative cell count greater than or equal to 0.9?
Response line: label 1

Prompt line: Has C=C(C)[C@@H](CC=C(C)C)C[C@@]12C[C@@H](CC=C(C)C)C(C)(C)[C@@](CC=C(C)C)(C(=O)/C(=C(\O)c3ccc(O)c(O)c3)C1=O)C2=O a recorded relative cell count greater than or equal to 0.9?
Response line: label 1

Prompt line: Has Nc1ncn([C@H]2C[C@H](O)[C@@H](CO)O2)c(=O)n1 a recorded relative cell count greater than or equal to 0.9?
Response line: label 1

Prompt line: Has CCC(=O)N1CCN(c2ccc(-n3c(=O)ccc4cnc5ccc(-c6cnc7ccccc7c6)cc5c43)cc2C(F)(F)F)CC1 a recorded relative cell count greater than or equal to 0.9?
Response line: label 0

Prompt line: Has COc1c(O)c2c(=O)cc3c4c5c(cc(=O)c6c(O)c(OC)c(CC(C)O)c(c(c1CC(C)O)c24)c65)OCO3 (stereo unspecified) a recorded relative cell count greater than or equal to 0.9?
Response line: label 0

---

System: U-2 OS
Experiment: cell painting activity score (Mahalanobis distance from DMSO wells); higher = stronger morphological phenotype
Conditions: 5 µM; 24 h
Assign cell painting activity score to each entry below.
Lab note: write the figure by itself, no unit.

Prompt line: Please give the measured cell painting activity score for this molecule: O=S1(=O)CCc2ccccc21
Response line: 4.01

Prompt line: Please give the measured cell painting activity score for this molecule: C=C1[C@@H](C)[C@H]2[C@H](Cc3ccccc3)NC(=O)[C@]23OC(=O)/C=C/[C@H](O)CCC[C@@H](C)C/C=C/[C@H]3[C@@H]1O
Response line: 10.7

Prompt line: Please give the measured cell painting activity score for this molecule: O=C(O[C@@H]1Cc2c(O)cc(O)cc2O[C@@H]1c1cc(O)c(O)c(O)c1)c1cc(O)c(O)c(O)c1
Response line: 4.82

Prompt line: Please give the measured cell painting activity score for this molecule: Cn1c(=O)n(-c2ccc(C(C)(C)C#N)cc2)c2c3cc(-c4cnc5ccccc5c4)ccc3ncc21
Response line: 12.8

Prompt line: Please give the measured cell painting activity score for this molecule: Oc1cccc(O)c1O
Response line: 3.87

Prompt line: Please give the measured cell painting activity score for this molecule: COC(=O)[C@@]12OC[C@]34[C@H]([C@@H](O)[C@@H]1O)[C@@]1(C)CC(=O)C(O)=C(C)[C@@H]1C[C@H]3OC(=O)[C@H](OC(=O)CC(C)C)[C@@H]24
Response line: 17.5

Prompt line: Please give the measured cell painting activity score for this molecule: CCCC[S@](=N)(=O)CC[C@H](N)C(=O)O
Response line: 4.52

Prompt line: Please give the measured cell painting activity score for this molecule: CCCC1(c2ccccc2)NC(=O)N(CC(=O)N(C)Cc2c(F)cccc2Cl)C1=O (stereo not drawn)
Response line: 6.63

---

Assign relative cell count to each entry below.
System: U-2 OS
Assay: relative cell count vs DMSO (cell painting) (fraction of DMSO control); higher = more cells remaining (less cytotoxic)
Details: 1.25 µM; 24 h
Lab note: write the figure by itself, no unit.

Prompt line: Please give the measured relative cell count for this compound: O=C1C=CC(=O)N1c1ccccc1
Response line: 1.06

Prompt line: Please give the measured relative cell count for this compound: COc1cccc2c1C(=O)c1c(O)c3c(c(O)c1C2=O)C[C@@](O)(C(=O)CO)C[C@@H]3O[C@H]1C[C@H](N)[C@H](O)[C@H](C)O1
Response line: 0.5

Prompt line: Please give the measured relative cell count for this compound: COC(=O)c1ccc([C@H]2c3[nH]c4ccccc4c3C[C@H](C(=O)OC)N2C(=O)CCl)cc1
Response line: 0.867

Prompt line: Please give the measured relative cell count for this compound: CCN(CCO)CCCOc1ccc2c(Nc3cc(CC(=O)Nc4cccc(F)c4)[nH]n3)ncnc2c1
Response line: 0.757

Prompt line: Please give the measured relative cell count for this compound: CC(C)=C[C@@H]1CO[C@]23C[C@]4(CO2)[C@H](CC[C@@H]2[C@@]5(C)CC[C@H](O[C@@H]6OC[C@H](O)[C@H](O[C@@H]7O[C@H](CO)[C@@H](O)[C@H](O)[C@H]7O)[C@H]6O[C@@H]6O[C@@H](CO)[C@H](O)[C@H]6O)C(C)(C)[C@@H]5CC[C@]24C)[C@H]3[C@@]1(C)O
Response line: 0.977

Prompt line: Please give the measured relative cell count for this compound: S=P(N1CC1)(N1CC1)N1CC1
Response line: 0.967

Prompt line: Please give the measured relative cell count for this compound: O=C1c2ccccc2[Se](=O)N1c1ccccc1 (configuration not stated)
Response line: 0.943

---

Test system: U-2 OS
Experiment: cell painting activity score (Mahalanobis distance from DMSO wells); higher = stronger morphological phenotype
Details: 2.5 µM; 24 h
metric: cell painting activity score
Lab note: write the figure by itself, no unit.

Prompt line: Please give the measured cell painting activity score for this molecule: Cl.Cl.O=C(O)Cn1nnc(-c2ccc(CN(CCCCOc3ccc(CN4CCCC4)cc3)CCc3ccccc3)cc2)n1
Response line: 7.08

Prompt line: Please give the measured cell painting activity score for this molecule: Cc1nc(Nc2ncc(C(=O)Nc3c(C)cccc3Cl)s2)cc(N2CCN(CCO)CC2)n1
Response line: 12.3

Prompt line: Please give the measured cell painting activity score for this molecule: C[C@@H]1O[C@@H](O[C@H]2[C@H](O[C@H]3CC[C@@]4(C)[C@@H](CC[C@]5(C)[C@@H]4CC=C4[C@@H]6CC(C)(C)CC[C@]6(C(=O)O[C@@H]6O[C@H](CO[C@@H]7O[C@H](CO)[C@@H](O[C@@H]8O[C@@H](C)[C@H](O)[C@@H](O)[C@H]8O)[C@H](O)[C@H]7O)[C@@H](O)[C@H](O)[C@H]6O)CC[C@]45C)[C@]3(C)CO)OC[C@H](O)[C@@H]2O)[C@H](O)[C@H](O)[C@H]1O
Response line: 3.28

Prompt line: Please give the measured cell painting activity score for this molecule: CC1OC2=C(C(=O)C(=O)c3ccccc32)C1(C)C (stereo not given)
Response line: 20.7

Prompt line: Please give the measured cell painting activity score for this molecule: CC(C)[C@H]1OC(=O)[C@H](Cc2ccccc2)N(C)C(=O)[C@@H](C(C)C)OC(=O)[C@H](Cc2ccccc2)N(C)C(=O)[C@@H](C(C)C)OC(=O)[C@H](Cc2ccccc2)N(C)C1=O
Response line: 9.63

---

Tested on: U-2 OS
Assay: cell painting activity score (Mahalanobis distance from DMSO wells); higher = stronger morphological phenotype
Conditions: 5 µM; 24 h
metric: cell painting activity score
Lab note: write the figure by itself, no unit.

Prompt line: Please give the measured cell painting activity score for this compound: CC(=O)O[C@H]1C(=O)[C@@]2(C)[C@H]([C@H](OC(=O)c3ccccc3)[C@]3(O)C[C@H](OC(=O)[C@H](O)[C@@H](NC(=O)c4ccccc4)c4ccccc4)C(C)=C1C3(C)C)[C@]1(OC(C)=O)CO[C@@H]1C[C@@H]2O
Response line: 23.3

Prompt line: Please give the measured cell painting activity score for this compound: C[C@@H]1Cc2c(Cl)cc(C(=O)N[C@@H](Cc3ccccc3)C(=O)O)c(O)c2C(=O)O1
Response line: 5.78

Prompt line: Please give the measured cell painting activity score for this compound: Nc1nccc2c1ncn2[C@@H]1C=C(CO)[C@@H](O)[C@H]1O
Response line: 28

Prompt line: Please give the measured cell painting activity score for this compound: N[C@@H](Cc1ccc(N(CCCl)CCCl)cc1)C(=O)O
Response line: 6.03

Prompt line: Please give the measured cell painting activity score for this compound: Cn1nnnc1SC1=CS(=O)(=O)c2ccccc21
Response line: 21.3

Prompt line: Please give the measured cell painting activity score for this compound: CC1=C2C(=CO[C@H](C)[C@H]2C)C(=O)C(C(=O)O)=C1O
Response line: 8.7

Prompt line: Please give the measured cell painting activity score for this compound: COc1cc(/C=C/C(=O)CC(=O)/C=C/c2ccc(O)c(OC)c2)ccc1O
Response line: 6.94

Prompt line: Please give the measured cell painting activity score for this compound: CC(C)(C)C(=O)OCOc1cccc2c1C(=O)C1C3C=CC(CC3)C1C2=O (stereo not drawn)
Response line: 8.44
